The measured values listed here are drawn from the supplement of paper PMC10567573.

B1: GMCL1 (parent)
chain: FCYCAGSHKRKRSSGSFCYCHPDS

Variants of: B1
Assay: protein stability index of a GFP-peptide fusion (GPS, HEK-293T) (PSI 1-6); higher = more stable;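 note: lentivirally expressed fusions sorted by FACS into six bins by GFP to DsRed ratio, PSI derived from sequencing read proportions per bin multiplied by bin number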
Settings: c terminus: a fixed tail appended
Listed here are variants together with their documented protein stability index.
// return just the number, without any unit appended

Observe how each entry below is paired with its result.
What value of protein stability index has been recorded for this entry: `C4P` 1.53

What value of protein stability index has been recorded for this entry: `C4H` 1.35

What value of protein stability index has been recorded for this entry: `S24D` 1.87

What value of protein stability index has been recorded for this entry: `R12S` 1.74

What value of protein stability index has been recorded for this entry: `D23S` 1.94

---
What value of protein stability index has been recorded for this entry: `A5P` 2.58

What value of protein stability index has been recorded for this entry: `Y19D` 2.9

What value of protein stability index has been recorded for this entry: `S13F` 2.24

What value of protein stability index has been recorded for this entry: `S7A` 2.15

What value of protein stability index has been recorded for this entry: `Y3T` 2.99

What value of protein stability index has been recorded for this entry: `S14D` 2.18

What value of protein stability index has been recorded for this entry: `C2H` 1.81

What value of protein stability index has been recorded for this entry: `K11R` 1.98

What value of protein stability index has been recorded for this entry: `H8E` 2.1

What value of protein stability index has been recorded for this entry: `C18S` 2.65

What value of protein stability index has been recorded for this entry: `S24G` 2.46
